# RP-LC retention time per record follows
Assay: gradient 5% acetonitrile 3 min, to 50% in 2 min, to 85% in 15 min, held 3 min, 100 µL/min
Conditions: column: Zorbax Extend-C18 2.1 x 50 mm; eluents: water / acetonitrile, 0.1% formic acid

>  <compound>
COc1ccc(NC(=O)c2c(O)c3cccnc3n(-c3ccc(F)cc3)c2=O)cc1F

>  <RP-LC retention time (s)>
1210

$$$$
>  <compound>
COc1ccc(-c2nc(-c3cn(Cc4cccc(F)c4)nn3)no2)cc1OC

>  <RP-LC retention time (s)>
901

$$$$
>  <compound>
Cc1cc(C)cc(NC(=O)NCCc2c(C)nn(C)c2C)c1

>  <RP-LC retention time (s)>
664

$$$$
>  <compound>
Clc1ccc(OCc2nn3c(-c4ccccn4)nnc3s2)cc1

>  <RP-LC retention time (s)>
832

$$$$
>  <compound>
COCc1cn(C2CN(C(=O)c3cnc(C)cn3)C2)nn1

>  <RP-LC retention time (s)>
592

$$$$
>  <compound>
Cc1ccc(-n2ccnc2SCc2nc(-c3cccc(Br)c3)no2)cc1

>  <RP-LC retention time (s)>
1080

$$$$
>  <compound>
CNC(=O)CCc1nc2ccccc2n(CC(=O)NC(C)CCc2ccccc2)c1=O (stereo unspecified)

>  <RP-LC retention time (s)>
728

$$$$
>  <compound>
CCOC(=O)Cc1cc(=O)oc2cc(O)ccc12

>  <RP-LC retention time (s)>
677

$$$$
>  <compound>
Cn1nnc2cc(CNC(=O)c3cccc(Cl)c3)ccc21

>  <RP-LC retention time (s)>
715

$$$$
>  <compound>
CCc1noc(NC(C)=O)c1-c1ccc(OC)c(S(=O)(=O)NC(C)C)c1

>  <RP-LC retention time (s)>
695

$$$$
>  <compound>
CC(=O)Nc1ccc(OCC(=O)O)nc1

>  <RP-LC retention time (s)>
574

$$$$
>  <compound>
CC(C)c1ccc(Nc2c(-c3ccc(O)cc3)nc3ncccn23)cc1

>  <RP-LC retention time (s)>
713

$$$$
>  <compound>
CCC(C)CC(=O)N1CCCN(C2=NS(=O)(=O)C(c3ccc(Cl)cc3)=C2C)CC1 (stereo unspecified)

>  <RP-LC retention time (s)>
944

$$$$
>  <compound>
COc1cc2c(cc1OC)C(C(=O)NCC1COc3ccccc3O1)C(c1cccs1)N(C)C2=O (stereo unspecified)

>  <RP-LC retention time (s)>
842

$$$$
>  <compound>
CC(NC(=O)c1ccco1)c1nc2ccccc2n1CC(=O)N(C)c1ccccc1 (stereo unspecified)

>  <RP-LC retention time (s)>
694

$$$$
>  <compound>
CN(CC1CCOC1)C(=O)Nc1ccc(Cl)cc1F (stereo unspecified)

>  <RP-LC retention time (s)>
728

$$$$
>  <compound>
CC(C(=O)N1CCC(c2cc(N)on2)CC1)c1ccccc1 (stereo unspecified)

>  <RP-LC retention time (s)>
722

$$$$
>  <compound>
CCn1cnc2ccc(-c3noc(CCc4c[nH]c5ccccc45)n3)cc21

>  <RP-LC retention time (s)>
735

$$$$
>  <compound>
Cc1cccc2nnc(N3CCCN(C(=O)c4cccs4)CC3)n12

>  <RP-LC retention time (s)>
541

$$$$
>  <compound>
O=C1CC(c2ccc(O)cc2)Oc2cc(O)cc(O)c21 (stereo unspecified)

>  <RP-LC retention time (s)>
784

$$$$
>  <compound>
CCCCN1C(SCC(=O)NCc2cccs2)=NS(=O)(=O)c2ccccc21

>  <RP-LC retention time (s)>
782

$$$$

----------
Experiment: gradient 5% acetonitrile 3 min, to 50% in 2 min, to 85% in 15 min, held 3 min, 100 µL/min
Details: column: Zorbax Extend-C18 2.1 x 50 mm; eluents: water / acetonitrile, 0.1% formic acid
Each record is given 1 if its reported RP-LC retention time is strictly below 700 s. Records at or above 700 s are given -1.

>  <molecule>
Cc1ccc(NC(=O)N2C[C@@H](F)C[C@H]2C(=O)N2CCc3ccccc3C2)cc1

>  <label>
-1

$$$$
>  <molecule>
COc1ccc(CNC(=O)C2(c3ccc(NC(C)=O)cc3)CCCCC2)c(OC)c1

>  <label>
-1

$$$$
>  <molecule>
COc1cccc(CNC(=O)Nc2c(-c3ccc(F)cc3)nc3ccccn23)c1

>  <label>
1

$$$$
>  <molecule>
O=C(NCc1ccccc1F)C1CCc2nc(N3CCOCC3)ncc2C1 (stereo not given)

>  <label>
-1

$$$$
>  <molecule>
CN(C)c1ccc(-c2nc3cnccn3c2Nc2ccc(Cl)cc2)cc1

>  <label>
-1

$$$$

----------
# RP-LC retention time per record follows
Test: gradient 5% acetonitrile 3 min, to 50% in 2 min, to 85% in 15 min, held 3 min, 100 µL/min
Details: column: Zorbax Extend-C18 2.1 x 50 mm; eluents: water / acetonitrile, 0.1% formic acid

>  <molecule>
c1ccc(Cn2cnnc2C2CCCN(Cc3cccs3)C2)cc1 (stereo not given)

>  <units_symbol>
s

>  <RP-LC retention time>
592

$$$$
>  <molecule>
O=C(c1ccccc1Br)N1CCN(c2nc(CN3CCCC3)cs2)CC1

>  <units_symbol>
s

>  <RP-LC retention time>
627

$$$$
>  <molecule>
COc1ccc(OC)c(NC(=O)Cn2c(=O)n(-c3ccc(C)cc3)c(=O)c3c2cc(C)n3C)c1

>  <units_symbol>
s

>  <RP-LC retention time>
908

$$$$
>  <molecule>
CCOC(=O)CNC(=O)Nc1ncc(-c2ccccc2)n1C

>  <units_symbol>
s

>  <RP-LC retention time>
613

$$$$
>  <molecule>
Cc1cccc(S(=O)(=O)N2CCC(CN3CCCCCC3)CC2)c1

>  <units_symbol>
s

>  <RP-LC retention time>
672

$$$$
>  <molecule>
CCN1CCN(CCNC(=O)C2CCN(c3nc4cccnc4s3)CC2)CC1

>  <units_symbol>
s

>  <RP-LC retention time>
559

$$$$
>  <molecule>
CC1Cc2ccccc2N1C(=O)C12CCC(C)(C(=O)O1)C2(C)C (stereo not given)

>  <units_symbol>
s

>  <RP-LC retention time>
1000

$$$$
>  <molecule>
COc1ccc(CCNCc2ccc3c(c2)n(C)c(=O)n3C)cc1OC

>  <units_symbol>
s

>  <RP-LC retention time>
587

$$$$
>  <molecule>
O=C(Nc1ccc(N2CCN(C3CCCC3)C2=O)nc1)c1ccccc1

>  <units_symbol>
s

>  <RP-LC retention time>
817

$$$$
>  <molecule>
CNC(=O)C1=CCN(C(=O)c2ccc(F)cc2F)CC1

>  <units_symbol>
s

>  <RP-LC retention time>
644

$$$$

----------
Assay: gradient 5% acetonitrile 3 min, to 50% in 2 min, to 85% in 15 min, held 3 min, 100 µL/min
Settings: column: Zorbax Extend-C18 2.1 x 50 mm; eluents: water / acetonitrile, 0.1% formic acid
# RP-LC retention time per record follows

>  <molecule>
CSc1cccc(NC(=O)Cn2cnc3nc(N4CCC(C(=O)NC5CC5)CC4)sc3c2=O)c1

>  <RP-LC retention time [s]>
696

$$$$
>  <molecule>
CC(=O)CC(c1ccccc1)C1C(=O)Oc2ccccc2C1=O (centres undefined)

>  <RP-LC retention time [s]>
1000

$$$$
>  <molecule>
CCCCCC(=O)Nc1cc(-c2nc3ccc(C)cc3[nH]2)ccc1C

>  <RP-LC retention time [s]>
750

$$$$
>  <molecule>
COc1ccc(Cl)cc1NC(=O)C1CCN(S(C)(=O)=O)c2cc(C)ccc2O1 (centres undefined)

>  <RP-LC retention time [s]>
1110

$$$$
>  <molecule>
CC1CN=C2C=C(N3CCN(C(=O)Nc4ccccc4C(F)(F)F)CC3)N=CN21 (centres undefined)

>  <RP-LC retention time [s]>
615

$$$$
>  <molecule>
CC(C)OC(=O)COC(=O)c1cn(-c2ccc(F)cc2)c(=O)c2ccccc12

>  <RP-LC retention time [s]>
1090

$$$$
>  <molecule>
CCCCS(=O)(=O)NCCc1noc(-c2ccccc2)n1

>  <RP-LC retention time [s]>
615

$$$$
>  <molecule>
O=C(Nc1ccccc1)NC1CCN(C(=O)N2C[C@H]3C[C@H](C2)[C@H]2CCCC(=O)N2C3)CC1

>  <RP-LC retention time [s]>
654

$$$$
>  <molecule>
CN1C(=O)Cc2cc(C(=O)NC3CCCC3)ccc21

>  <RP-LC retention time [s]>
665

$$$$
>  <molecule>
Cc1ccc(C(=O)Nc2nc(C)cc(C)c2-c2noc(C)n2)cc1

>  <RP-LC retention time [s]>
743

$$$$
>  <molecule>
Cc1noc2ncnc(N3CCCC(C(=O)N4CCC(Cc5ccccc5)CC4)C3)c12 (centres undefined)

>  <RP-LC retention time [s]>
986

$$$$
>  <molecule>
N#Cc1cccc(NC(=O)C2CCN(S(=O)(=O)c3cc(C(=O)N4CCCC4)cs3)CC2)c1

>  <RP-LC retention time [s]>
995

$$$$
>  <molecule>
CCCCNC(=O)c1nc(Nc2ccc(CC)cc2)c2ccccc2n1

>  <RP-LC retention time [s]>
916

$$$$
>  <molecule>
O=C(Cc1ccccc1Cl)Nc1ccc(-c2nc(-c3ccccc3)co2)cc1

>  <RP-LC retention time [s]>
1150

$$$$
>  <molecule>
Cc1ccc(NC(=O)CN2C(=O)CCCc3cc(S(=O)(=O)N4CCCC4)ccc32)cc1C

>  <RP-LC retention time [s]>
824

$$$$
>  <molecule>
CCN(CC)CCCNC(=O)c1noc2c1CCCCC2

>  <RP-LC retention time [s]>
632

$$$$
>  <molecule>
CC1=C(c2ccc(C)cc2)S(=O)(=O)N=C1N1CCCN(C(=O)C(C)(C)C)CC1

>  <RP-LC retention time [s]>
858

$$$$
>  <molecule>
Cc1cc(C)cc(-c2nnc(Cc3nc(-c4ccc(Br)cc4)no3)o2)c1

>  <RP-LC retention time [s]>
1270

$$$$
>  <molecule>
CCOCCCNC(=O)C1CCCN(c2ccc(=O)n(-c3ccc(F)cc3)n2)C1 (centres undefined)

>  <RP-LC retention time [s]>
697

$$$$
>  <molecule>
COc1ccc(OC)c(NC(=O)N2CCc3cn(CC(C)C)c4cccc(c34)C2)c1

>  <RP-LC retention time [s]>
1160

$$$$
>  <molecule>
CC(=O)N1CCN(C(=O)C2CCCN(c3ccc(-c4ccc(C)c(C)c4)nn3)C2)CC1 (centres undefined)

>  <RP-LC retention time [s]>
622

$$$$
>  <molecule>
O=C(Nc1nc2c(s1)CN(C(=O)Cn1c(=O)oc3ccccc31)CC2)C1CCCO1 (centres undefined)

>  <RP-LC retention time [s]>
665

$$$$
>  <molecule>
O=C(Cn1cnc2nc(N3CCC(C(=O)NC4CC4)CC3)sc2c1=O)Nc1cccc(Cl)c1

>  <RP-LC retention time [s]>
679

$$$$
>  <molecule>
Cc1ccc(NC(=O)N2CCC(C(C)C(=O)Nc3ccccc3F)CC2)cc1 (centres undefined)

>  <RP-LC retention time [s]>
869

$$$$
>  <molecule>
CC(C)(C)C(=O)N1CCN(c2ncccc2-c2nnc(C3CC3)o2)CC1

>  <RP-LC retention time [s]>
760

$$$$
>  <molecule>
Cc1nc(OCC(=O)Nc2ccc(F)cc2)c2ccccc2n1

>  <RP-LC retention time [s]>
709

$$$$
>  <molecule>
Cc1cc(C)cc(NC(=O)C2CCN(S(C)(=O)=O)c3cc(C)ccc3O2)c1 (centres undefined)

>  <RP-LC retention time [s]>
900

$$$$
>  <molecule>
Cc1ccc(-n2nnc(C(=O)O)c2-c2ccccn2)c(F)c1

>  <RP-LC retention time [s]>
697

$$$$
>  <molecule>
Cn1nc(-c2nnc(-c3ccccc3)o2)c2c1CCN(S(=O)(=O)c1ccccc1C(F)(F)F)C2

>  <RP-LC retention time [s]>
990

$$$$
>  <molecule>
Cc1nnc2c(=O)n(CC(=O)NCc3ccccc3)c3cccnc3n12

>  <RP-LC retention time [s]>
654

$$$$
>  <molecule>
CN(CC1CCOCC1)C(=O)Nc1ccc(Cl)cc1

>  <RP-LC retention time [s]>
772

$$$$
>  <molecule>
Cc1ccc(CNC(=O)Cn2cccc(-c3nc(-c4ccc(Br)cc4)no3)c2=O)cc1

>  <RP-LC retention time [s]>
1030

$$$$
>  <molecule>
CC(=O)Nc1ccc(-n2cnc(C(=O)N3CCN(c4ccc(F)cc4)CC3)c2)nc1

>  <RP-LC retention time [s]>
688

$$$$
>  <molecule>
COc1ccc(C(=O)Nc2nc(-c3ccccc3)cs2)cc1

>  <RP-LC retention time [s]>
1040

$$$$
>  <molecule>
Cc1nc(Nc2ccccc2)sc1C(=O)NC1CCCC1

>  <RP-LC retention time [s]>
869

$$$$
>  <molecule>
NC(=O)c1cc(N2CCOCC2)nc2ccc(F)cc12

>  <RP-LC retention time [s]>
688

$$$$
>  <molecule>
COCCN1C(=O)CN(Cc2ccc(C)cc2)C(=O)C1c1cccs1 (centres undefined)

>  <RP-LC retention time [s]>
849

$$$$
>  <molecule>
Cc1nn(-c2ccccc2)c(C)c1S(=O)(=O)N1CCC(C(=O)NC2CCCc3ccccc32)CC1 (centres undefined)

>  <RP-LC retention time [s]>
1010

$$$$
>  <molecule>
CN(C)C(=O)c1ccc2c(c1)nc(CN(C)C(=O)Nc1ccccc1Br)n2C

>  <RP-LC retention time [s]>
618

$$$$
